Tested on: E. coli (Gentamicin resistant-Gent R) CAN-ICU 61714
Assay type: cell-based
Conditions: Gentamicin resistant-Gent R) CAN-ICU 61714
ENDPOINT: MIC, E. coli CAN-ICU 61714 (µg/mL)
Your answer should be a plain number; it is taken to be in µg/mL.

Solved entries:
| MOLECULAR STRING | MEASURED TARGET | U | MIC, E. coli CAN-ICU 61714 |
| --- | --- | --- | --- |
| CCCCCCCCCCCCCCCC(=O)N[C@@H](CCCCN)CC(=O)N[C@@H](C)CC(=O)N[C@@H](C)CC(=O)N[C@@H](CCCCN)CC(N)=O | E. coli (Gentamicin resistant-Gent R) CAN-ICU 61714 | µg/mL | 64 |
| CCCCCCCCCCCC(=O)N[C@@H](CCCCN)CC(=O)N[C@H](CC(=O)N[C@H](CC(=O)N[C@@H](CCCCN)CC(N)=O)CC(C)C)CC(C)C | E. coli (Gentamicin resistant-Gent R) CAN-ICU 61714 | µg/mL | 64 |
| CCCCCCCCCCCCCCCC(=O)N[C@@H](CCCCN)CC(=O)NCCC(=O)NCCC(=O)N[C@@H](CCCCN)CC(N)=O | E. coli (Gentamicin resistant-Gent R) CAN-ICU 61714 | µg/mL | 32 |

Param item: `CCCCCCCCCCCCCCCC(=O)N[C@@H](CCCCN)CC(=O)N[C@@H](CCCCN)CC(=O)N[C@@H](CCCCN)CC(=O)N[C@@H](CCCCN)CC(N)=O` ; param system: E. coli (Gentamicin resistant-Gent R) CAN-ICU 61714; output MIC, E. coli CAN-ICU 61714: 32

---

Catalogue of MIC, P. aeruginosa ATCC27853 values
System: P. aeruginosa ATCC 27853
Assay type: cell-based, Pseudomonas aeruginosa
Conditions: ATCC 27853
Record the value in µg/mL, omitting the unit from your answer.

| MOLECULAR STRING | MEASURED TARGET | OBSERVED RESULT |
| --- | --- | --- |
| CCCCCCCCCCCC(=O)N[C@@H](CCCCN)CC(=O)N[C@H](CC(=O)N[C@H](CC(=O)N[C@@H](CCCCN)CC(N)=O)CC(C)C)CC(C)C | P. aeruginosa ATCC 27853 | 128 |
| CCCCCCCCCCCCCCCC(=O)N[C@@H](CCCCN)CC(=O)N[C@@H](C)CC(=O)N[C@@H](C)CC(=O)N[C@@H](CCCCN)CC(N)=O | P. aeruginosa ATCC 27853 | 256 |
| CCCCCCCCCCCCCCCC(=O)N[C@@H](CCCCN)CC(=O)NCCC(=O)NCCC(=O)N[C@@H](CCCCN)CC(N)=O | P. aeruginosa ATCC 27853 | 64 |

Per the record, `CCCCCCCCCCCCCCCC(=O)N[C@@H](CCCCN)CC(=O)N[C@@H](CCCCN)CC(=O)N[C@@H](CCCCN)CC(=O)N[C@@H](CCCCN)CC(N)=O` has MIC, P. aeruginosa ATCC27853 of 64

---

Test system: S. maltophilia CAN-ICU 62584
Type: cell-based, Stenotrophomonas maltophilia
Details: CAN-ICU 62584
Each item that follows carries a reported MIC, S. maltophilia CAN-ICU 62584.
The figure you give is taken to be in µg/mL; do not add the unit.

| COMPOUND | U | MIC, S. maltophilia CAN-ICU 62584 |
| --- | --- | --- |
| CCCCCCCCCCCCCCCC(=O)N[C@@H](CCCCN)CC(=O)NCCC(=O)NCCC(=O)N[C@@H](CCCCN)CC(N)=O [(β)C16-KGGK] | µg/mL | 256 |
| CCCCCCCCCCCCCCCC(=O)N[C@@H](CCCCN)CC(=O)N[C@@H](CCCCN)CC(=O)N[C@@H](CCCCN)CC(=O)N[C@@H](CCCCN)CC(N)=O [(β)C16-KKKK] | µg/mL | 256 |

Per the records, this compound ( CCCCCCCCCCCC(=O)N[C@@H](CCCCN)CC(=O)N[C@H](CC(=O)N[C@H](CC(=O)N[C@@H](CCCCN)CC(N)=O)CC(C)C)CC(C)C [(β)C12-KLLK] ) has MIC, S. maltophilia CAN-ICU 62584 equal to 256

---

Some compounds, each annotated with its measured MIC, P. aeruginosa CAN-ICU 62308.
Test system: P. aeruginosa (Gent-R) CAN-ICU 62308
Type: cell-based, Pseudomonas aeruginosa
Details: Gent-R) CAN-ICU 62308
Note: unit mg/L is implicit; provide only the numeric part.

Look over these answered cases.
| MOLECULAR STRING | MEASURED TARGET | U | MIC, P. aeruginosa CAN-ICU 62308 |
| --- | --- | --- | --- |
| CCCCCCCCCCCCCCCC(=O)N[C@@H](CCCCN)CC(=O)N[C@@H](CCCCN)CC(=O)N[C@@H](CCCCN)CC(=O)N[C@@H](CCCCN)CC(N)=O | P. aeruginosa (Gent-R) CAN-ICU 62308 | mg/L | 128 |
| CCCCCCCCCCCC(=O)N[C@@H](CCCCN)CC(=O)N[C@H](CC(=O)N[C@H](CC(=O)N[C@@H](CCCCN)CC(N)=O)CC(C)C)CC(C)C | P. aeruginosa (Gent-R) CAN-ICU 62308 | mg/L | 128 |

From here, focus on the item given below.
Entry `CCCCCCCCCCCCCCCC(=O)N[C@@H](CCCCN)CC(=O)N[C@@H](C)CC(=O)N[C@@H](C)CC(=O)N[C@@H](CCCCN)CC(N)=O` , P. aeruginosa (Gent-R) CAN-ICU 62308 data, MIC, P. aeruginosa CAN-ICU 62308 value: 128

---

MIC, S. aureus ATCC29213 by entry:
System: S. aureus ATCC 29213
Format: cell-based, Staphylococcus aureus
Details: ATCC 29213
Answer format: numeric, µg/mL implied, no suffix.

| MOLECULAR STRING | U | MIC, S. aureus ATCC29213 |
| --- | --- | --- |
| CCCCCCCCCCCCCCCC(=O)N[C@@H](CCCCN)CC(=O)N[C@@H](C)CC(=O)N[C@@H](C)CC(=O)N[C@@H](CCCCN)CC(N)=O | µg/mL | 64 |
| CCCCCCCCCCCCCCCC(=O)N[C@@H](CCCCN)CC(=O)N[C@@H](CCCCN)CC(=O)N[C@@H](CCCCN)CC(=O)N[C@@H](CCCCN)CC(N)=O | µg/mL | 16 |
| CCCCCCCCCCCC(=O)N[C@@H](CCCCN)CC(=O)N[C@H](CC(=O)N[C@H](CC(=O)N[C@@H](CCCCN)CC(N)=O)CC(C)C)CC(C)C | µg/mL | 32 |

Proceed to the following item.
Note to self: MIC, S. aureus ATCC29213 recorded for `CCCCCCCCCCCCCCCC(=O)N[C@@H](CCCCN)CC(=O)NCCC(=O)NCCC(=O)N[C@@H](CCCCN)CC(N)=O` was 16
